tested on: Serratia marcescens; test: Broth dilution MIC (CLSI); assay type: cell-based; conditions: read-out: MIC
REPORTED METRIC: MIC

Consider the following illustrative entries.
COC(=O)[C@@H]1CCC(=O)N1Cc1cc2ccc(OC)cc2c2cc(OC)c(OC)cc12 [PP1S]
> 100 mg/L
NNC(=O)c1ccncc1 [INH, isoniazid, reference compound]
> 100 mg/L
COC(=O)[C@@H]1CCC(=O)N1Cc1cc2ccc(OCc3ccccc3)cc2c2cc(OC)c(OC)cc12 [PP3S]
> 100 mg/L

Task item: Field: MIC (Serratia marcescens). Entry: CCCCOc1ccc2cc(CN3C(=O)CC[C@H]3C(=O)OC)c3cc(OC)c(OC)cc3c2c1 [PP2S]
Reply: > 100 mg/L

Task item: Field: MIC (Serratia marcescens). Entry: [H]/N=C(/N)N[C@H]1[C@H](O)[C@@H](O)[C@H](O[C@@H]2O[C@@H](C)[C@](O)(C=O)[C@H]2O[C@@H]2O[C@@H](CO)[C@H](O)[C@@H](O)[C@@H]2NC)[C@@H](N/C(N)=N\[H])[C@@H]1O [STR, streptomycin]
Reply: 50 mg/L

---

system: Salmonella Paratyphi A; test: Broth dilution MIC (CLSI); type: cell-based; details: Salmonella enterica; Salmonella Paratyphi A; read-out: MIC
Description: […]
REPORTED METRIC: MIC

[H]/N=C(/N)N[C@H]1[C@H](O)[C@@H](O)[C@H](O[C@@H]2O[C@@H](C)[C@](O)(C=O)[C@H]2O[C@@H]2O[C@@H](CO)[C@H](O)[C@@H](O)[C@@H]2NC)[C@@H](N/C(N)=N\[H])[C@@H]1O
6.3 µg/mL
COC(=O)[C@@H]1CCC(=O)N1Cc1cc2ccc(OCc3ccccc3)cc2c2cc(OC)c(OC)cc12
> 100 µg/mL
COC(=O)[C@@H]1CCC(=O)N1Cc1cc2ccc(OC)cc2c2cc(OC)c(OC)cc12
> 100 µg/mL
NNC(=O)c1ccncc1 [INH, isoniazid, reference compound]
> 100 µg/mL

Continue with the molecule presented below.
Task item: Give the measured MIC of CCCCOc1ccc2cc(CN3C(=O)CC[C@H]3C(=O)OC)c3cc(OC)c(OC)cc3c2c1 .
Reply: > 100 µg/mL

---

system: M. tuberculosis H37Ra; assay: microbe, parasite or virus in culture; type: cell-based, Mycobacterium tuberculosis; conditions: Mycobacterium tuberculosis, H37RA
Entries annotated with measured MIC

Consider the following illustrative entries.
CCCCOc1ccc2cc(CN3C(=O)CC[C@@H]3C(=O)OC)c3cc(OC)c(OC)cc3c2c1
> 100 µg/mL
COC(=O)c1cc2ccc(OC3CCCCC3)cc2c2cc(OC)c(OC)cc12
> 100 µg/mL
COC(=O)[C@@H]1CCC(=O)N1Cc1cc2ccc(OCc3ccccc3)cc2c2cc(OC)c(OC)cc12
1.6 µg/mL
COC(=O)[C@@H]1CCC(=O)N1Cc1cc2ccc(OC)cc2c2cc(OC)c(OC)cc12
1.6 µg/mL
CCOc1ccc2cc(C(=O)OC)c3cc(OC)c(OC)cc3c2c1
> 100 µg/mL
COC(=O)[C@H]1CCC(=O)N1Cc1cc2ccc(OC)cc2c2cc(OC)c(OC)cc12
> 100 µg/mL
CCCCOc1ccc2cc(CN3C(=O)CC[C@H]3C(=O)OC)c3cc(OC)c(OC)cc3c2c1
0.4 µg/mL
CCCCOc1ccc2cc(C(=O)OC)c3cc(OC)c(OC)cc3c2c1
> 100 µg/mL

Task item: Give the measured MIC of COC(=O)[C@H]1CCC(=O)N1Cc1cc2ccc(OCc3ccccc3)cc2c2cc(OC)c(OC)cc12 .
Reply: > 100 µg/mL

Task item: Give the measured MIC of COC(=O)c1cc2ccc(O)cc2c2cc(OC)c(OC)cc12 .
Reply: > 100 µg/mL

Task item: Give the measured MIC of COC(=O)c1cc2ccc(OCC(C)C)cc2c2cc(OC)c(OC)cc12 .
Reply: > 100 µg/mL

Task item: Give the measured MIC of CCCCOc1ccc2cc(CO)c3cc(OC)c(OC)cc3c2c1 .
Reply: > 100 µg/mL
